- target_system: T1, human TROP2-Fc protein antigen (human, UniProt P09758 27-274)
- T1 construct: extracellular domain; also called CRD + TY-1 + CPD; not shown: IgG Fc of the pFUSE-IgG plasmid
- T1 sequence (looked up): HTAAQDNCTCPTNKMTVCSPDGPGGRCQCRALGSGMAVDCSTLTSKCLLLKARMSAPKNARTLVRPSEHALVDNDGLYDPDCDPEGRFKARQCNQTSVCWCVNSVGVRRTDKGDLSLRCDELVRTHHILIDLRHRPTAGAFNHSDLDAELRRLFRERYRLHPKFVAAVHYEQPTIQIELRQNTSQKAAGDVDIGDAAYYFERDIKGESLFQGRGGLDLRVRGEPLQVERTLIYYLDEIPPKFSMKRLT
- assay_notes: SPR (Biacore 8K), human TROP2-Fc on CM-5 chip, VHH in flow

{"columns": ["binder", "result_units", "koff"],
 "data": [
  ["MY1530-5-17 (VHH, Expressed in E. coli WK6 from vector pMECS, purified on a nickel column; also called MY1530-5-17 VHH; anti-TROP2 single domain antibody) VHH: QVQLQESGGGSVQPGGSLRLSCVVSGYTVSSVCMAWFRQAPGMERELVAGFYHSGGTYYGDSVKGRFTASQDNAKNTLYLQMNSLKPEDTATYYCARARYPSSACGTSPSNYNIWGQGTQVTVSS", "s⁻¹", 0.00011],
  ["MY1530-1-20 (VHH, Expressed in E. coli WK6 from vector pMECS, purified on a nickel column; also called MY1530-1-20 VHH; anti-TROP2 single domain antibody) VHH: QVQLQESGGGSVLAGGSLRLSCTVSGSFVSSRSMAWFRQTPGKEREGVAAISQYGDPKYAGSVKGRFTMSRDNAKNTLLLQMNSLKPEDTAIYYCAAGEAWELATLSRSDYIYWGQGTQVTVSS", "s⁻¹", 0.000179],
  ["MY1530-4-22 (VHH, Expressed in E. coli WK6 from vector pMECS, purified on a nickel column; also called MY1530-4-22 VHH; anti-TROP2 single domain antibody) VHH: QVQLQESGGGSVQAGGSLKLSCVVSGYTVSSVCMAWFRQAPGMERELVAGFYHSGGTYYGDSVKGRFTASQDNAKNTLYLQMNSLKPEDTATYYCARARYPSSACGTSPSNYNIWGQGTQVTVSS", "s⁻¹", 0.000187],
  ["MY1530-5-54 (VHH, Expressed in E. coli WK6 from vector pMECS, purified on a nickel column; also called MY1530-5-54 VHH; anti-TROP2 single domain antibody) VHH: QVQLQESGGGSVQPGGSLRLSCVASGYTASSVCMAWFRQAPGKERELVAGYYHSGGTYYGDSVKGRFTASQDNAKNTLYLQMNSLKPEDTATYYCARARYPSSACGTSPSNYNIWGQGTQVTVSS", "s⁻¹", "8.99e-05"]
]}

Numbers sourced from patent US20240368302A1.
